Test system: MCF 7/ADR cells
assay_summary: in vitro sensitivity at different drug exposure times, MCF 7/ADR
Format: cell-based
test_conditions: Homo sapiens, NCI/ADR-RES, 1 hour pulse
metric: GI50

- CCCCCCCCCCCCC/C=C/[C@@H](O)[C@H](CO)NCCCCCCCC: 34.3 µM

Can you look up the measured GI50 of CCCCCCCCCCCCC/C=C/[C@@H](O)[C@H](COC(=O)C(C)C)NC(=O)CCCCC [1-Isobutyrate C6-Ceramide, 1-isobutyrate, C6-ceramide] for me?
> 100 µM

Can you look up the measured GI50 of CCCCCCCCCCCCC/C=C/[C@@H](O)[C@H](COC(=O)CCC)NC(=O)CCCCC [1-Butyrate C6-Ceramide, 1-butyrate, C6-ceramide] for me?
> 100 µM

Can you look up the measured GI50 of CCCCCCCCCCCCC/C=C/[C@@H](O)[C@H](COC(C)=O)NC(=O)CCCCC [1-Acetate C6-Ceramide, 1-acetate, C6-ceramide] for me?
> 100 µM

---

Below: a set of entries, each annotated with reported GI50.
System: A549 cells
assay_summary: in vitro sensitivity at different drug exposure times, A549
Assay type: cell-based
test_conditions: Homo sapiens, 1 hour pulse

* CCCCCCCCCCCCC/C=C/[C@@H](O)[C@H](COC(=O)CCC)NC(=O)CCCCC [1-Butyrate C6-Ceramide, 1-butyrate, C6-ceramide] | > 100 µM
* CCCCCCCCCCCCC/C=C/[C@@H](O)[C@H](COC(C)=O)NC(=O)CCCCC [1-Acetate C6-Ceramide, 1-acetate, C6-ceramide] | 92.9 µM
* CCCCCCCCCCCCC/C=C/[C@@H](O)[C@H](COC(=O)C(C)C)NC(=O)CCCCC [1-Isobutyrate C6-Ceramide, 1-isobutyrate, C6-ceramide] | > 100 µM

Field: next compound
Please state recorded GI50 (tested on A549 cells) of CCCCCCCCCCCCC/C=C/[C@@H](O)[C@H](CO)NCCCCCCCC
31.2 µM

---

Quick note: these are GI50 numbers for system: RPMI 7666 cells

In the examples that follow, each entry is paired with its recorded GI50.
* CCCCCCCCCCCCC/C=C/[C@@H](OC(=O)CCC)[C@H](CO[Si](C)(C)C(C)(C)C)NC(=O)CCCCC [1-TBDMS-3-Butyrate C6-Cer, 1-TBDMS,3-butyrate, C6-Cer] | > 200 µM
* CCCCCCCCCCCCC/C=C/[C@@H](O)[C@H](CO[Si](C)(C)C(C)(C)C)NC(=O)CCCCC [1-TBDMS C6-Ceramide, 1-TBDMS C6-Cer] | > 200 µM

Can you look up the measured GI50 of CCCCCCCCCCCCC/C=C/[C@@H](O[Si](C)(C)C(C)(C)C)[C@H](CO)NC(=O)CCCCC [3-TBDMS C6-Ceramide, 3-TBDMS C6-Cer] for me?
> 200 µM

---

Below: a set of entries, each annotated with reported GI50.
Test system: MCF 7/ADR cells
assay_summary: in vitro sensitivity at different drug exposure times, MCF 7/ADR
Type: cell-based
test_conditions: Homo sapiens, NCI/ADR-RES, 72 hour continuous exposure
Protocol: These studies were performed using a sulforrhodamine B assay (see Monks et al., J. Natl. Cancer Inst. (U.S.) 83:757 ([…])). Compounds were dissolved in ethanol. Results from these studies, presented in the following tables, are expressed as Gl50 values, that is, concentration of a drug (micromolar) required to inhibit growth of fifty percent of the cells.
State the answer as a number, implicitly in µM.

• CCCCCCCCCCCCC/C=C/[C@@H](O)[C@H](COC(C)=O)NC(=O)CCCCC [1-Acetate C6-Ceramide, 1-acetate, C6-ceramide] = 16.7

Can you look up the measured GI50 of CCCCCCCCCCCCC/C=C/[C@@H](O)[C@H](COC(=O)C(C)C)NC(=O)CCCCC [1-Isobutyrate C6-Ceramide, 1-isobutyrate, C6-ceramide] for me?
19.6

Can you look up the measured GI50 of CCCCCCCCCCCCC/C=C/[C@@H](O)[C@H](CO)NCCCCCCCC for me?
5

Can you look up the measured GI50 of CCCCCCCCCCCCC/C=C/[C@@H](O)[C@H](COC(=O)CCC)NC(=O)CCCCC [1-Butyrate C6-Ceramide, 1-butyrate, C6-ceramide] for me?
18.5

---

Below: a set of entries, each annotated with reported GI50.
Test system: A549 cells
assay_summary: in vitro sensitivity at different drug exposure times, A549
Type: cell-based
test_conditions: Homo sapiens, 4 hour pulse
State the answer as a number, implicitly in µM.

In the examples that follow, each entry is paired with its recorded GI50.
• CCCCCCCCCCCCC/C=C/[C@@H](O)[C@H](CO)NCCCCCCCC = 12.8
• CCCCCCCCCCCCC/C=C/[C@@H](O)[C@H](COC(=O)CCC)NC(=O)CCCCC [1-Butyrate C6-Ceramide, 1-butyrate, C6-ceramide] = 52.9

Field: next molecule
Can you look up the measured GI50 of CCCCCCCCCCCCC/C=C/[C@@H](O)[C@H](COC(C)=O)NC(=O)CCCCC [1-Acetate C6-Ceramide, 1-acetate, C6-ceramide] for me?
44.1

---

System: MCF7/ADR cells
assay_summary: sulforhodamine B cytotoxicity assay, 72 hour drug exposure, MCF7/ADR
Assay type: cell-based
test_conditions: Homo sapiens, NCI/ADR-RES, 72 h
metric: GI50
Answer with the number, then the unit.

In the examples that follow, each entry is paired with its recorded GI50.
- CCCCCCCCCCCCC/C=C/[C@@H](O)[C@H](COC(=O)CCC)NC(=O)CCCCC [1-Butyrate C6-Ceramide, 1-butyrate, C6-ceramide]: 37.8 µM
- CCCCCCCCCCCCC/C=C/[C@@H](O)[C@H](CO)NCCCCCC: 5.57 µM
- CCCCCCCCCCCCC/C=C/[C@@H](O)[C@H](CO)NCCCCCCCCCC: 6.19 µM
- CCCCCCCCCCCCC/C=C/[C@@H](O)[C@H](CO)NCCCC: 9.6 µM
- CCCCCCCCCCCCC/C=C/[C@@H](O)[C@H](COC(=O)C(C)C)NC(=O)CCCCC [1-Isobutyrate C6-Ceramide, 1-isobutyrate, C6-ceramide]: 37.8 µM
- CCCCCCCCCCCCCC(O)C(O)[C@@H](O)[C@H](CO)NC(=O)CCCCC (stereo partly shown) [4,5-Diol C6-Ceramide, 4,5-diol C6-Cer]: 28.3 µM

Can you look up the measured GI50 of CCCCCCCCCCCCC/C=C/C(=O)[C@H](COC(C)=O)NC(=O)CCCCC [1-Acetate-3-one C6-Cer, 1-acetate-3-one C6-Cer] for me?
14.7 µM

---

Below: a set of entries, each annotated with reported GI50.
System: A549 cells
assay_summary: in vitro sensitivity at different drug exposure times, A549
Assay type: cell-based
test_conditions: Homo sapiens, 72 hour continuous exposure
State the answer as a number, implicitly in µM.

In the examples that follow, each entry is paired with its recorded GI50.
- CCCCCCCCCCCCC/C=C/[C@@H](O)[C@H](COC(C)=O)NC(=O)CCCCC [1-Acetate C6-Ceramide, 1-acetate, C6-ceramide]: 5.1
- CCCCCCCCCCCCC/C=C/[C@@H](O)[C@H](COC(=O)CCC)NC(=O)CCCCC [1-Butyrate C6-Ceramide, 1-butyrate, C6-ceramide]: 5.5
- CCCCCCCCCCCCC/C=C/[C@@H](O)[C@H](COC(=O)C(C)C)NC(=O)CCCCC [1-Isobutyrate C6-Ceramide, 1-isobutyrate, C6-ceramide]: 5.6

Field: next compound
Please state recorded GI50 (tested on A549 cells) of CCCCCCCCCCCCC/C=C/[C@@H](O)[C@H](CO)NCCCCCCCC
5

---

Below: a set of entries, each annotated with reported GI50.
Test system: MCF7/ADR cells
assay_summary: sulforhodamine B cytotoxicity assay, 72 hour drug exposure, MCF7/ADR
Assay type: cell-based
test_conditions: Homo sapiens, NCI/ADR-RES, 72 h
State the answer as a number, implicitly in µM.

In the examples that follow, each entry is paired with its recorded GI50.
• CCCCCCCCCCCCC/C=C/[C@@H](O)[C@H](CO)NC(=O)CCCCC [C6-Ceramide, C6-ceramide, reference compound] = 36
• CCCCCCCCCCCCC/C=C/[C@@H](OC(C)=O)[C@H](COC(C)=O)NC(=O)CCCCC [1,3-Diacetate C6-Ceramide] = 42.9

Field: next molecule
Can you look up the measured GI50 of CCCCCCCCCCCCC/C=C/[C@@H](O)[C@H](CO)NCCCCCCCC for me?
4.88

---

Test system: MCF 7/ADR cells
assay_summary: in vitro sensitivity at different drug exposure times, MCF 7/ADR
Assay type: cell-based
test_conditions: Homo sapiens, NCI/ADR-RES, 48 hour pulse
Below: a set of entries, each annotated with reported GI50.
State the answer as a number, implicitly in µM.

• CCCCCCCCCCCCC/C=C/[C@@H](O)[C@H](COC(=O)C(C)C)NC(=O)CCCCC [1-Isobutyrate C6-Ceramide, 1-isobutyrate, C6-ceramide] = 18.7

Please state recorded GI50 (tested on MCF 7/ADR cells) of CCCCCCCCCCCCC/C=C/[C@@H](O)[C@H](COC(C)=O)NC(=O)CCCCC [1-Acetate C6-Ceramide, 1-acetate, C6-ceramide]
15.6

Please state recorded GI50 (tested on MCF 7/ADR cells) of CCCCCCCCCCCCC/C=C/[C@@H](O)[C@H](COC(=O)CCC)NC(=O)CCCCC [1-Butyrate C6-Ceramide, 1-butyrate, C6-ceramide]
17.2

Please state recorded GI50 (tested on MCF 7/ADR cells) of CCCCCCCCCCCCC/C=C/[C@@H](O)[C@H](CO)NCCCCCCCC
4.62
